The sequences listed here are annotated with their apparent KD of MS2 coat protein.
Test system: MS2 coat protein
test details: apparent KD of MS2 coat protein; higher = weaker reporter binding
reported conditions: Eterna round: R107; input ligand: tryptophan 2.4 mM
quantity: apparent KD of MS2 coat protein

biopolymer_sequence="AACAUGAGGAUCACCCAUGUGUCCCUUGAUACCAGUCCCAUGUGAGACCCUUGGCAGCAAACAUGAGGAUCACCCAUGUCCCAUG [Same State Theophylline A 3]" system_tested="MS2 coat protein" observed_value="90.2 nM"
biopolymer_sequence=UGUAUGUGAUCUGAUACCAGACGUGUAAACCUGAGGAUCACCCUGGUAAGGCGAAAGCCAGUCCCUUGGCAGCAGAUCGCAUACU system_tested="MS2 coat protein" observed_value="50 nM"
biopolymer_sequence="AGUUAAAUAUGUUAAUAACUAUUUACUGAAGGAGCGUGUUUUUACACAGGUAGGUCGCAGUGACAUGAGGAUCACCCAUGUAGUA [JR_SSArginiA_Sub012]" system_tested="MS2 coat protein" observed_value="33.4 nM"
